All figures here come from PubChem BioAssay AID1863.

- Experiment description: PhoP-dependent GFP reporter repression – Salmonella Typhimurium, primary screen (AID 1863);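 further: 0% = low Mg2+ inducing control and 100% = high Mg2+ repressing control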
- Assay context: S. Typhimurium PhoP-regulated promoter GFP reporter, 4 h; at 50 µM; hits give high values
Out of some 300,000 compounds screened, about 480 (0.16%) were called active. A selection follows. Results with a measured potency or affinity are listed apart.
Result type: inhibition (%)
Answer format: numeric, % implied, no suffix.

Examples with answers:
Cc1[nH]c(=O)[nH]c(=O)c1S(=O)(=O)Nc1ccc(Cl)c([N+](=O)[O-])c1
5.49
Cc1cc(OCC(=O)OCC(=O)N(C)c2c(N)n(Cc3ccccc3)c(=O)[nH]c2=O)ccc1Cl
-6.01
Cc1sc2cc3c(c(C(=O)c4ccccc4)[n+]2c1C)-c1cccc2cccc-3c12
-2.96
Cc1sc2ccccc2[n+]1CC(=O)c1ccccc1
2.11

Pending compound:
Prompt line: Which inhibition is listed for `C[C@H]1[C@H](NC(=O)C(=NOC(C)(C)C(=O)O)c2csc(N)n2)C(=O)N1S(=O)(=O)O` ?
Response line: -6.02

====

# reported inhibition; entries follow
- Experiment description: PhoP-dependent GFP reporter repression – Salmonella Typhimurium, primary screen (AID 1863);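 further: 0% = low Mg2+ inducing control and 100% = high Mg2+ repressing control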
- Assay context: S. Typhimurium PhoP-regulated promoter GFP reporter, 4 h; at 50 µM; hits give high values
The campaign covered roughly 300,000 compounds. About 480 (0.16%) were called active. A selection follows. Entries with a potency or affinity are not part of this list.
Write the value in % as a bare number.

Prompt line: Recorded inhibition for `Cc1ccc(Nc2nc(N)c([N+](=O)[O-])c(NCc3ccccc3)n2)cc1` , please?
Response line: -2.58

Prompt line: Now consider `Cc1nn2c(-c3ccccc3)ccnc2c1Br` .
Response line: 0.66

Prompt line: Next: `Cc1c(N=Cc2cc(Br)cc(Br)c2O)cccc1C(=O)O`
Response line: 20.2

Prompt line: Next up: CCN(CC)P(=O)(c1ccccc1)c1c(C)nc2ccccn12 (stereo unspecified)
Response line: -1.09

Prompt line: Consider next the compound `COCCCn1c(Cc2csc(Nc3ccc(F)cc3)n2)nnc1SCC(N)=O` in the same way.
Response line: 0.4

Prompt line: Param item: `O=C(O)c1cccc(N/N=C/c2cc(Br)cc(Br)c2O)c1`
Response line: -5.01

====

- Experiment description: PhoP-dependent GFP reporter repression – Salmonella Typhimurium, primary screen (AID 1863);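 further: 0% = low Mg2+ inducing control and 100% = high Mg2+ repressing control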
- Assay context: S. Typhimurium PhoP-regulated promoter GFP reporter, 4 h; at 50 µM; hits give high values
Screen size: about 300,000 compounds; about 480 (0.16%) were called active. Only a sample is shown. Measured potencies and affinities stand elsewhere.
Result type: inhibition (%)
Give the value in % but do not write % after it.

Check out these entries, answers already filled in.
COc1cc(S(=O)(=O)n2ccnc2)ccc1Br
-8.94
CCS(=O)(=O)N1CCCC(C(=O)NCCCOC)C1 (stereo unspecified)
-8.48
Clc1ccc2[nH]c3c(NCC4CCCO4)ncnc3c2c1 (stereo unspecified)
17.8

Prompt line: Quick one: inhibition of `CCOc1ccc(CN(CC)C(=O)c2ccc3c(c2)[nH]c(=O)c(=O)n3CC)cc1OC` ?
Response line: 2.8

Prompt line: Query `Cc1cc2nc(N)sc2cc1C` next
Response line: 3.73

Prompt line: Follow-up item: O=C(O)C1CCC1C(=O)Nc1nc(-c2ccc(Cl)s2)cs1 (stereo unspecified)
Response line: -4.65
